Biological target: Human immunodeficiency virus type 1 protease (Human immunodeficiency virus 1)
Assay: Inhibition of HIV1 protease at 5 uM

{"molecule": "O=C(N[C@@H](Cc1ccccc1)[C@H](Cc1ccccc1)n1cc(CN2CCC3(CC2)C(=O)NCN3c2ccccc2)nn1)OC1CCCC1", "inhibition (%)": 17}
{"molecule": "Cc1cccc(N2CCN(Cc3cn([C@@H](Cc4ccccc4)[C@H](Cc4ccccc4)NC(=O)OC4CCCC4)nn3)CC2)c1", "inhibition (%)": 87}
{"molecule": "CC(C)(C)OC(=O)N1CCN(Cc2cn([C@@H](Cc3ccccc3)[C@H](Cc3ccccc3)NC(=O)OC3CCCC3)nn2)CC1", "inhibition (%)": 51}
{"molecule": "Cc1ccc(Cl)cc1N1CCN(Cc2cn([C@@H](Cc3ccccc3)[C@H](Cc3ccccc3)NC(=O)OCC3CCCO3)nn2)CC1 (some centres undefined)", "inhibition (%)": 41}

###

Target: Human immunodeficiency virus type 1 protease (Human immunodeficiency virus 1) (UniProt Q72874)
Assay: Inhibition of HIV1 protease at 5 uM
recorded_metric: inhibition (%)

{"compound_string": "O=C(N[C@@H](Cc1ccccc1)[C@H](Cc1ccccc1)n1cc(CN2CCN(C3CCCCC3)CC2)nn1)OC1CCCC1", "experimental_value": 22}
{"compound_string": "Cc1ccc(Cl)cc1N1CCN(Cc2cn([C@@H](Cc3ccccc3)[C@H](Cc3ccccc3)NC(=O)OC3CCCC3)nn2)CC1", "experimental_value": 94}
{"compound_string": "Cc1ccc(Cl)cc1N1CCN(Cc2cn([C@@H](Cc3ccccc3)[C@H](Cc3ccccc3)NC(=O)OCC3CCC3)nn2)CC1", "experimental_value": 75}
{"compound_string": "CCOC(=O)N[C@@H](Cc1ccccc1)[C@H](Cc1ccccc1)n1cc(CN2CCN(c3cc(Cl)ccc3C)CC2)nn1", "experimental_value": 41}
{"compound_string": "O=C(N[C@@H](Cc1ccccc1)[C@H](Cc1ccccc1)n1cc(CN2CCC(O)(c3ccccc3)CC2)nn1)OC1CCCC1", "experimental_value": 20}

###

Target: Human immunodeficiency virus type 1 protease (Human immunodeficiency virus 1)
Test: Inhibition of HIV1 protease at 5 uM
Entries and their inhibition values follow.
recorded_metric: inhibition (%)

{"compound_string": "Cc1ccc(Cl)cc1N1CCN(Cc2cn([C@@H](Cc3ccccc3)[C@H](Cc3ccccc3)NC(=O)OC3CCCCCC3)nn2)CC1", "target_or_system": "Human immunodeficiency virus type 1 protease (Human immunodeficiency virus 1)", "result_units": "%", "experimental_value": 63}
{"compound_string": "O=C(N[C@@H](Cc1ccccc1)[C@H](Cc1ccccc1)n1cc(CN2CCN(Cc3ccc4c(c3)OCO4)CC2)nn1)OC1CCCC1", "target_or_system": "Human immunodeficiency virus type 1 protease (Human immunodeficiency virus 1)", "result_units": "%", "experimental_value": 29}
{"compound_string": "O=C(N[C@@H](Cc1ccccc1)[C@H](Cc1ccccc1)n1cc(CN2CCN(c3ccc(F)cc3)CC2)nn1)OC1CCCC1", "target_or_system": "Human immunodeficiency virus type 1 protease (Human immunodeficiency virus 1)", "result_units": "%", "experimental_value": 64}
{"compound_string": "O=C(N[C@@H](Cc1ccccc1)[C@H](Cc1ccccc1)n1cc(CN2CCN(c3cccc(O)c3)CC2)nn1)OC1CCCC1", "target_or_system": "Human immunodeficiency virus type 1 protease (Human immunodeficiency virus 1)", "result_units": "%", "experimental_value": 85}
{"compound_string": "Cc1ccc(Cl)cc1N1CCN(Cc2cn([C@@H](Cc3ccccc3)[C@H](Cc3ccccc3)NC(=O)OC3CCCCC3)nn2)CC1", "target_or_system": "Human immunodeficiency virus type 1 protease (Human immunodeficiency virus 1)", "result_units": "%", "experimental_value": 66}
{"compound_string": "Cc1ccc(Cl)cc1N1CCN(Cc2cn([C@@H](Cc3ccccc3)[C@H](Cc3ccccc3)NC(=O)OCc3ccccc3)nn2)CC1", "target_or_system": "Human immunodeficiency virus type 1 protease (Human immunodeficiency virus 1)", "result_units": "%", "experimental_value": 29}
{"compound_string": "COC(=O)N[C@@H](Cc1ccccc1)[C@H](Cc1ccccc1)n1cc(CN2CCN(c3cc(Cl)ccc3C)CC2)nn1", "target_or_system": "Human immunodeficiency virus type 1 protease (Human immunodeficiency virus 1)", "result_units": "%", "experimental_value": 25}
{"compound_string": "O=C(N[C@@H](Cc1ccccc1)[C@H](Cc1ccccc1)n1cc(CN2CCC(n3c(=O)[nH]c4ccccc43)CC2)nn1)OC1CCCC1", "target_or_system": "Human immunodeficiency virus type 1 protease (Human immunodeficiency virus 1)", "result_units": "%", "experimental_value": 23}
{"compound_string": "Cc1ccc(Cl)cc1N1CCN(Cc2cn([C@@H](Cc3ccccc3)[C@H](Cc3ccccc3)NC(=O)O[C@H]3CCOC3)nn2)CC1", "target_or_system": "Human immunodeficiency virus type 1 protease (Human immunodeficiency virus 1)", "result_units": "%", "experimental_value": 85}
{"compound_string": "O=C(N[C@@H](Cc1ccccc1)[C@H](Cc1ccccc1)n1cc(CN2CCN(c3cnccn3)CC2)nn1)OC1CCCC1", "target_or_system": "Human immunodeficiency virus type 1 protease (Human immunodeficiency virus 1)", "result_units": "%", "experimental_value": 14}
{"compound_string": "COc1ccccc1N1CCN(Cc2cn([C@@H](Cc3ccccc3)[C@H](Cc3ccccc3)NC(=O)OC3CCCC3)nn2)CC1", "target_or_system": "Human immunodeficiency virus type 1 protease (Human immunodeficiency virus 1)", "result_units": "%", "experimental_value": 38}
{"compound_string": "Cc1ccc(Cl)cc1N1CCN(Cc2cn([C@@H](Cc3ccccc3)[C@H](Cc3ccccc3)NC(=O)OCC3CCCC3)nn2)CC1", "target_or_system": "Human immunodeficiency virus type 1 protease (Human immunodeficiency virus 1)", "result_units": "%", "experimental_value": 76}
{"compound_string": "Cc1ccccc1N1CCN(Cc2cn([C@@H](Cc3ccccc3)[C@H](Cc3ccccc3)NC(=O)OC3CCCC3)nn2)CC1", "target_or_system": "Human immunodeficiency virus type 1 protease (Human immunodeficiency virus 1)", "result_units": "%", "experimental_value": 80}
{"compound_string": "O=C(N[C@@H](Cc1ccccc1)[C@H](Cc1ccccc1)n1cc(CN2CCN(c3ccc(Cl)cc3)CC2)nn1)OC1CCCC1", "target_or_system": "Human immunodeficiency virus type 1 protease (Human immunodeficiency virus 1)", "result_units": "%", "experimental_value": 77}
{"compound_string": "Cc1ccc(Cl)cc1N1CCN(Cc2cn([C@@H](Cc3ccccc3)[C@H](Cc3ccccc3)NC(=O)O[C@@H]3CCOC3)nn2)CC1", "target_or_system": "Human immunodeficiency virus type 1 protease (Human immunodeficiency virus 1)", "result_units": "%", "experimental_value": 71}
